Target: Translocator protein (Rattus norvegicus, UniProt P16257)
Sequence (P16257 whole entry, looked up): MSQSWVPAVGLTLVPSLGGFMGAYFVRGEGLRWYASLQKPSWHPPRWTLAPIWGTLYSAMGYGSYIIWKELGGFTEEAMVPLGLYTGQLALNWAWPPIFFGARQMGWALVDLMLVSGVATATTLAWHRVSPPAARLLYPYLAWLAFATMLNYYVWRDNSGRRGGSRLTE
Procedure Summary: Inhibitory concentration against peripheral benzodiazepine receptor of rat ovary
Type: tissue-based, Female gonad
pIC50: −log10 of the molar value.

>  <Molecule>
CN(CCc1ccccn1)C(=O)Cc1c(-c2ccc(Cl)cc2)nc2c(Cl)cc(Cl)cn12

>  <pIC50>
5.29

$$$$
>  <Molecule>
O=C(Cc1c(-c2ccc(Cl)cc2)nc2c(Cl)cc(Cl)cn12)NC1CCCCC1

>  <pIC50>
5.98

$$$$
>  <Molecule>
CCCCN(CCCC)C(=O)Cc1c(-c2ccc(Cl)cc2)nc2c(Cl)cccn12

>  <pIC50>
7.65

$$$$
>  <Molecule>
CCCCN(C(=O)Cc1c(-c2ccccc2)nc2c(Cl)cc(Cl)cn12)c1ccccc1

>  <pIC50>
8.34

$$$$
>  <Molecule>
CCOC(=O)C1CCCN(C(=O)Cc2c(-c3ccc(Cl)cc3)nc3c(Cl)cc(Cl)cn23)C1 (centres undefined)

>  <pIC50>
5.60

$$$$
>  <Molecule>
O=C(Cc1c(-c2ccc(Cl)cc2)nc2c(Cl)cc(Cl)cn12)Nc1ccccc1

>  <pIC50>
7.60

$$$$
>  <Molecule>
CCCCCCN(CCCCCC)C(=O)Cc1c(-c2ccc(Cl)cc2)nc2ccc(Cl)cn12

>  <pIC50>
7.31

$$$$
>  <Molecule>
C=CCN(CC=C)C(=O)Cc1c(-c2ccc(Cl)cc2)nc2c(Cl)cc(Cl)cn12

>  <pIC50>
8.25

$$$$
>  <Molecule>
CCCN(Cc1ccc([N+](=O)[O-])cc1)C(=O)Cc1c(-c2ccc(Cl)cc2)nc2c(Cl)cc(Cl)cn12

>  <pIC50>
7.16

$$$$
>  <Molecule>
O=C(Cc1c(-c2ccc(Cl)cc2)nc2c(Cl)cc(Cl)cn12)N1CCN(Cc2ccccc2)CC1

>  <pIC50>
3.14

$$$$
>  <Molecule>
CCCN(CCC)C(=O)C(C)c1c(-c2ccc(Cl)cc2)nc2c(Cl)cc(Cl)cn12 (centres undefined)

>  <pIC50>
5.57

$$$$
>  <Molecule>
CCCCN(C(=O)Cc1c(-c2ccc(Cl)cc2)nc2c(Cl)cc(Cl)cn12)c1ccccc1

>  <pIC50>
8.32

$$$$
>  <Molecule>
O=C(Cc1c(-c2ccc(Cl)cc2)nc2c(Cl)cc(Cl)cn12)N1CCCCC1

>  <pIC50>
7.04

$$$$
>  <Molecule>
CN(CCc1ccccn1)C(=O)Cc1c(-c2ccccc2)nc2c(Cl)cc(Cl)cn12

>  <pIC50>
5.30

$$$$
>  <Molecule>
CCCCCCN(CCCCCC)C(=O)Cc1c(-c2ccc(Cl)cc2)nc2c(Cl)cc(Cl)cn12

>  <pIC50>
5.58

$$$$
>  <Molecule>
CCOC(=O)C1CCCN(C(=O)Cc2c(-c3ccc(Cl)cc3)nc3ccc(Cl)cn23)C1 (centres undefined)

>  <pIC50>
6.52

$$$$
>  <Molecule>
CCCCN(C)C(=O)Cc1c(-c2ccc(Cl)cc2)nc2c(Cl)cc(Cl)cn12

>  <pIC50>
8.48

$$$$
>  <Molecule>
CC(C(=O)N(C)Cc1ccccc1)c1c(-c2ccc(Cl)cc2)nc2c(Cl)cc(Cl)cn12 (centres undefined)

>  <pIC50>
4.94

$$$$
>  <Molecule>
O=C(Cc1c(-c2ccccc2)nc2c(Cl)cc(Cl)cn12)Nc1ccncc1

>  <pIC50>
5.39

$$$$

* * *

Target: Translocator protein (Rattus norvegicus, UniProt P16257)
Procedure Summary: Inhibitory concentration against peripheral benzodiazepine receptor of rat cerebral cortex
Type: tissue-based
Threshold-based label: IC50 under 0.01 µM gives Met, IC50 not under 0.01 µM gives Not met.

>  <Mol>
CCCCN(C(=O)Cc1c(-c2ccccc2)nc2c(Cl)cc(Cl)cn12)c1ccccc1

>  <Group>
Not met

$$$$
>  <Mol>
O=C(Cc1c(-c2ccc(Cl)cc2)nc2c(Cl)cc(Cl)cn12)NC1CCCCC1

>  <Group>
Not met

$$$$
>  <Mol>
O=C(Cc1c(-c2ccccc2)nc2c(Cl)cc(Cl)cn12)N1CCc2ccccc2C1

>  <Group>
Not met

$$$$
>  <Mol>
CCCCN(C(=O)Cc1c(-c2ccc(Cl)cc2)nc2c(Cl)cc(Cl)cn12)c1ccccc1

>  <Group>
Not met

$$$$
>  <Mol>
O=C(Cc1c(-c2ccccc2)nc2c(Cl)cc(Cl)cn12)Nc1ccncc1

>  <Group>
Not met

$$$$
>  <Mol>
CCCCN(CCCC)C(=O)Cc1c(-c2ccc(Cl)cc2)nc2ccc(Cl)cn12

>  <Group>
Met

$$$$
>  <Mol>
O=C(Cc1c(-c2ccc(Cl)cc2)nc2c(Cl)cc(Cl)cn12)Nc1ccccc1

>  <Group>
Not met

$$$$
>  <Mol>
CCCCN(C(=O)Cc1c(-c2ccc(Cl)cc2)nc2ccc(Cl)cn12)c1ccccc1

>  <Group>
Met

$$$$
>  <Mol>
CCCCCCN(CCCCCC)C(=O)Cc1c(-c2ccc(Cl)cc2)nc2ccc(Cl)cn12

>  <Group>
Met

$$$$
>  <Mol>
CCCCN(C)C(=O)Cc1c(-c2ccccc2)nc2c(Cl)cc(Cl)cn12

>  <Group>
Met

$$$$

* * *

Target: Benzodiazepine receptors; peripheral & central (Rattus norvegicus) (UniProt O09028+P15431+P18506+P18508+P19969+P20236+P23574+P23576+P28471+P28473+P30191+P62813+P63079+P63138+Q91ZM7+Q9ES14+P16257)
Procedure Summary: Ratio of inhibition for peripheral benzodiazepine receptor of rat ovary and central benzodiazepine GABA-A receptor
Type: tissue-based
Set-up: scale not given here
Conditions Used: Female gonad
Categories are defined by ranges of Selectivity index, namely zone 1 = under 1, zone 2 = from 1 up to 2, zone 3 = 2 and over

>  <Molecule>
CCCN(Cc1ccc([N+](=O)[O-])cc1)C(=O)Cc1c(-c2ccc(Cl)cc2)nc2c(Cl)cc(Cl)cn12

>  <Group>
zone 3

$$$$
>  <Molecule>
CCCCN(CCCC)C(=O)Cc1c(-c2ccc(Cl)cc2)nc2ccc(Cl)cn12

>  <Group>
zone 2

$$$$
>  <Molecule>
CCCCN(C)C(=O)Cc1c(-c2ccc(Cl)cc2)nc2c(Cl)cc(Cl)cn12

>  <Group>
zone 3

$$$$
>  <Molecule>
CCCCNC(=O)Cc1c(-c2ccc(Cl)cc2)nc2c(Cl)cc(Cl)cn12

>  <Group>
zone 2

$$$$
>  <Molecule>
CCCCCCN(CCCCCC)C(=O)Cc1c(-c2ccc(Cl)cc2)nc2ccc(Cl)cn12

>  <Group>
zone 2

$$$$
>  <Molecule>
CCCCN(C(=O)Cc1c(-c2ccc(Cl)cc2)nc2ccc(Cl)cn12)c1ccccc1

>  <Group>
zone 2

$$$$
>  <Molecule>
O=C(Cc1c(-c2ccccc2)nc2c(Cl)cc(Cl)cn12)N1CCCCC1

>  <Group>
zone 1

$$$$
>  <Molecule>
CC(C(=O)N(C)C1CCCCC1)c1c(-c2ccc(Cl)cc2)nc2c(Cl)cc(Cl)cn12 (configuration not stated)

>  <Group>
zone 1

$$$$
>  <Molecule>
CCCCN(CCCC)C(=O)Cc1c(-c2ccc(Cl)cc2)nc2c(Cl)cc(Cl)cn12

>  <Group>
zone 3

$$$$

* * *

Target: GABA-A receptor; anion channel
Procedure Summary: Displacement of [3H]flunitrazepam from central benzodiazepine GABA-A receptor of rat cerebral cortex
pKi: −log10 of the molar value.
Measured pKi by item

>  <Compound>
CCOC(=O)C1CCCN(C(=O)Cc2c(-c3ccc(Cl)cc3)nc3ccc(Cl)cn23)C1 (centres undefined)

>  <pKi>
6.89

$$$$
>  <Compound>
O=C(Cc1c(-c2ccccc2)nc2c(Cl)cc(Cl)cn12)N1CCCC1

>  <pKi>
5.16

$$$$
>  <Compound>
CCCN(Cc1ccc([N+](=O)[O-])cc1)C(=O)Cc1c(-c2ccc(Cl)cc2)nc2c(Cl)cc(Cl)cn12

>  <pKi>
5.16

$$$$
>  <Compound>
CC(C(=O)N(C)C1CCCCC1)c1c(-c2ccc(Cl)cc2)nc2c(Cl)cc(Cl)cn12 (centres undefined)

>  <pKi>
5.15

$$$$
>  <Compound>
O=C(Cc1c(-c2ccc(Cl)cc2)nc2c(Cl)cc(Cl)cn12)N1CCCC1

>  <pKi>
5.15

$$$$
>  <Compound>
O=C(Cc1c(-c2ccc(Cl)cc2)nc2c(Cl)cc(Cl)cn12)Nc1ccccc1

>  <pKi>
5.16

$$$$
>  <Compound>
CC(C(=O)N(C)Cc1ccccc1)c1c(-c2ccc(Cl)cc2)nc2c(Cl)cc(Cl)cn12 (centres undefined)

>  <pKi>
5.15

$$$$
>  <Compound>
CCCCN(CCCC)C(=O)Cc1c(-c2ccc(Cl)cc2)nc2c(Cl)cc(Cl)cn12

>  <pKi>
5.11

$$$$
>  <Compound>
C=CCN(CC=C)C(=O)Cc1c(-c2ccc(Cl)cc2)nc2c(Cl)cc(Cl)cn12

>  <pKi>
5.11

$$$$

This collection of values is drawn from ChEMBL document CHEMBL1139492.
